- tested-on: Cellular tumor antigen p53 (Homo sapiens) (UniProt P04637)
- Sequence (P04637 whole entry, looked up): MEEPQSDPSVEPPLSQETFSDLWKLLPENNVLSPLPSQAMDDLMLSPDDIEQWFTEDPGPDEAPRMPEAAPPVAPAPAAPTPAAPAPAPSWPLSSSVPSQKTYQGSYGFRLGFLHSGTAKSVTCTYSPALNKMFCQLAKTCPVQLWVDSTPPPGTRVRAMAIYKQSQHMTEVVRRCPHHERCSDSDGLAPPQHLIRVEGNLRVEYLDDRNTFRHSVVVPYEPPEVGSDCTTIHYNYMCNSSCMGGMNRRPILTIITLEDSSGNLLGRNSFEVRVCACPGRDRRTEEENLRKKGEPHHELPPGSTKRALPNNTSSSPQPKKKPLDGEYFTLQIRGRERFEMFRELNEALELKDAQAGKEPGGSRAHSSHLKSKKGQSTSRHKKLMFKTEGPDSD
- test-summary: Primary qHTS for small molecule compounds that upregulate eGFP-tagged delta133p53alpha (in C-terminal) cells. (AID 2060324)
- conditions-used: NCI-H358 delta133p53alpha-eGFP (C-terminal tag), GFP fluorescence imaging, 24 h; series mostly up to 57.5 µM
Records with an inconclusive call do not appear. The source made the active and inactive calls. Calls come from the whole dose curve; as a rule, active = well fitted activation curve with a large enough effect; inconclusive = small, poorly fitted or top-dose-only effect; inactive = flat fitted curve, though single readings scatter.
Respond with a class label; see active, inactive

• COc1ccccc1CN[C@@H]1CCCN[C@@H]1c1ccccc1 = inactive

Query: How did this test come out for "CC(C)(C)[C@]1(O)CCN2C[C@H]3c4ccccc4CCc4cccc(c43)[C@@H]2C1" ?
Result: inactive

Query: Now consider COC(=O)C1=C(C)NC(C)=C([N+](=O)[O-])C1c1ccccc1C(F)(F)F (configuration not stated) and answer again.
Result: inactive

Query: Same again, this time with CCN1CCCC1CNC(=O)c1cc(S(N)(=O)=O)ccc1OC (configuration not stated)
Result: inactive

Query: Same thing, different compound: CCOC(=O)C12CC1/C(=N/O)c1ccccc1O2 (configuration not stated)
Result: inactive

Query: What about "CC(C)N(CCC(=O)c1ccc2ccccc2c1)Cc1ccccc1" ?
Result: active

Query: Moving on to the next compound: "Cn1c(=O)c2[nH]c(C3CCCC3)nc2n(C)c1=O"
Result: inactive

---

- tested-on: Cellular tumor antigen p53 (Homo sapiens) (UniProt P04637)
- test-summary: Primary qHTS for small molecule compounds that upregulate eGFP-tagged delta133p53alpha (in N-terminal) cells. (AID 2060322);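 note: cells pre-induced with doxycycline then dosed without doxycycline; 0% = DMSO vehicle and 100% = reference activator; nearly all actives have a fitted effect of over 75% in size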
- conditions-used: NCI-H358 eGFP-delta133p53alpha fluorescence, 24 h; hits give high values
Records with an inconclusive call do not appear.
The following compounds are listed with their measured activation values.
Provide only the numeric value, understood in %.

# example entries with known answers
- CC(=O)O[C@@H]1[C@@H](O)[C@H](C)O[C@@H](O[C@H]2[C@@H]3C=CO[C@@H](O[C@@H]4O[C@H](CO)[C@@H](O)[C@H](O)[C@H]4O)[C@@H]3[C@@]3(CO)O[C@@H]23)[C@@H]1OC(=O)/C=C/c1ccccc1: 4.58
- C=C1CCC2C(C)(C)CCC[C@]2(C)[C@H]1C/C=C(\CO)C(=O)C(=O)O (stereo partly specified): -6.87
- C[C@]1(OC(=O)/C=C/c2ccccc2)C[C@H](O)[C@]2(O)C=CO[C@@H](O[C@@H]3O[C@H](CO)[C@@H](O)[C@H](O)[C@H]3O)C12 (stereo partly specified): -18.3

# input for lookup
Query: Look up activation for this compound: "c1nc2nc(Nc3ccc(N4CCOCC4)cc3)nc(NC3CCCCC3)c2[nH]1"
Result: -34

---

- test-summary: BET inhibitor-based combinations targeting novel dependencies in MECOM-rearranged (r) AML: UCSD-AML1 cell line (AID 2202235); note: nearly all actives have a fitted effect of over 40% in size
- conditions-used: UCSD-AML1 AML cells viability, CellTiter-Glo, 48 h; series mostly up to 46 µM
Records with an inconclusive call do not appear. Active and inactive are the calls of the source. Calls follow the shape of the dose curve; as a rule, active = well fitted inhibition curve with a large enough effect; inconclusive = small, poorly fitted or top-dose-only effect; inactive = no such curve, though single readings can be large or run the other way.
Response enum: active, inactive

• Clc1ccc2nsnc2c1NC1=NCCN1 = inactive
• CC[C@@H](C)Nc1cc(C(=O)NC2CC3CCC(C2)N3c2ccc(C(=O)C3CC3)cn2)c(C)cc1C(N)=O (stereo not given in full) = active
• O=C(c1cncc(Br)c1)N1CCC(N2CCCC2)CC1 = inactive
• CC(=O)Nc1nc(C)c(-c2ccc(Cl)c(S(=O)(=O)NCCO)c2)s1 = active

Attention now turns to another entry.
Query: Hi team, can someone confirm the assay call for "NNC(=O)c1ccncc1" ?
Result: inactive
